Where do these numbers come from? They come from PubChem BioAssay (NCI).

Experiment: NCI Yeast Anticancer Drug Screen. Data for the rad50 strain (AID 155);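 note: 0% = growth of vehicle-only cultures of the same strain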
Settings: S. cerevisiae rad50 strain growth inhibition; at 5.0 µM (retest, dose inferred, filed as 0.5)
Protocol: Growth inhibition of yeast strains with defined genetic alterations is measured as a screen for potential anti-cancer activity. Selected strains with alterations in DNA damage repair or cell cycle control were exposed to compounds and growth inhibition was measured relative to vehicle treated controls. The strain used in this assay is rad50
About 79,000 compounds went through this panel and 15% of them were active in at least one assay; those are over-represented in the sample as a whole. Calls of active or inactive are those of the source. Cut-off read from the data, not from the text of the source: active = growth inhibition above about 70%; inactive = the rest.
# output must be one of label 1 for active, label 0 for inactive

COMPOUND: C(=P(c1ccccc1)(c1ccccc1)c1ccccc1)[P+](c1ccccc1)(c1ccccc1)c1ccccc1.[Br][Cu][Br]
CATEGORY: label 1
//
COMPOUND: [O-][n+]1c(-c2ccccc2)c(Cl)c(-c2ccccc2)n1O
CATEGORY: label 0

Ask: In this assay, the call recorded for CN(C)Cc1ccc(C(C)(C)C)cc1-c1cc(C(C)(C)C)ccc1CN(C)C was what?
Result: label 0

Ask: Entry to check: CC1=CC2OC3CC4OC(=O)/C=C/C=C/C(C(C)O)OCC(=O)C(C)CC(=O)OCC2(CC1)C4(C)C31CO1 (stereo not given)
Result: label 0

Ask: What do you have for CC(=O)OCCC1=CCC2CC1C2(C)C (stereo not given) ?
Result: label 0

Ask: And CC(=O)C1(C(C)=O)C2=C(C(=O)C(Cl)=C(Cl)C2=O)N2C=CC=CC21 (stereo not given) ?
Result: label 1

Ask: Similarly, CC(C)C1=CC23CCC4C(C)(C(=O)O)CCCC4(C)C2CC1CC3C#N (stereo not given) ?
Result: label 0

Ask: Thanks! And NC(=O)c1ccc[n+](CC(=O)Nc2ccc(Cl)cc2)c1 ?
Result: label 0

Ask: How about O=c1ssc(=Nc2ccc(Cl)cc2)n1-c1ccc(Cl)cc1 ?
Result: label 1

Ask: Try the compound FC(F)(F)c1ccccc1NC(=S)SCc1ccc2c(c1)OCO2
Result: label 0

###

test: NCI Yeast Anticancer Drug Screen. Data for the cln2 rad14 strain (AID 165);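 note: 0% = growth equal to vehicle treated cultures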; settings: S. cerevisiae cln2 rad14 strain, at 5.0 µM (retest, dose inferred, filed as 0.5)
Compounds without any hit were thinned out: in the full panel of roughly 79,000, 15% have a hit. Activity calls are given as the source filed them. No stated cut-off is given here; in the data, active means growth inhibition above about 70%; inactive means the rest.
In this exercise, the only acceptable responses are 1 for active, -1 for inactive

COMPOUND: Cc1ccc(C)c(C(=O)/C=C/C(=O)O)c1
CATEGORY: -1

Ask: Look up the recorded call for O=c1[nH]cc(F)c(=O)n1C1CCCCO1 (centres undefined) in this test.
Result: -1

Ask: COC(=O)c1ccccc1NC(=S)NN(C)C ?
Result: -1

Ask: And for CC1CC(C)CC(C(O)(C(=O)O)C2CC(C)CC(C)C2)C1 (centres undefined) ?
Result: 1

Ask: Now the same for COc1ccc(N=NN2CCCC2)cc1
Result: -1

Ask: Here is the next compound: O=[N+]([O-])c1cccc(S(=O)(=O)Cl)c1
Result: -1

Ask: Now consider c1ccc2nc3ccccc3nc2c1 .
Result: -1

Ask: Would you mind doing CCCCCCCCCCCCn1cnc2ncnc(Cl)c21 as well?
Result: -1

Ask: Query C=C1C(O)C2(O)OCC34C(CC5C(C)=CC(=O)C(O)C5(C)C23)OC(=O)C(OC(=O)C/C=C(\C)CCCCC)C14 (centres undefined) next
Result: 1

Ask: What about this compound? O=[N+]([O-])C12CCCCC1([N+](=O)[O-])CCCC2 (centres undefined)
Result: -1

Ask: // query: CC/C(=N\O)c1ccc2cc(Br)c3ccccc3c2c1
Result: -1

Ask: Item: O=C1/C(=C/c2cccc([N+](=O)[O-])c2)CCCc2ccccc21
Result: -1

Ask: What do we get for Cc1ccc(-n2cc(-c3ccc(Cl)cc3)c3c(NN)ncnc32)cc1 ?
Result: -1

Ask: Nc1ccc(SCCCc2c(N)nc(N)nc2N)cc1 ?
Result: -1

Ask: Next record, please: CCN(CC)CCCNc1cc(C)nc2c1ccc1c2ccc2c(NCCCN(CC)CC)cc(C)nc21
Result: -1

Ask: Another: CCOC(=O)c1ccc(O)c(OC)c1
Result: -1

Ask: Thanks! And CC1(c2ccc(S(=O)(=O)c3ccccc3)cc2)OC(=O)C=CC1=O (centres undefined) ?
Result: -1

Ask: And what about the compound O=C1C(Cl)=C(N2C(=O)CCC2=O)C(=O)c2ccccc21 ?
Result: 1

Ask: Now this one: CCOC(=O)c1[nH]cc(C)c1-c1ccc2c(-c3ccccc3)nc3ccccc3n12
Result: -1

Ask: Would you mind doing CC(C)[C@@H]1CC[C@@H](C)C[C@H]1OC(=O)NN as well?
Result: -1
